- Target: T1, BoNT/C1 holotoxin (Clostridium botulinum, UniProt P18640 2-1291)
- T1 sequence: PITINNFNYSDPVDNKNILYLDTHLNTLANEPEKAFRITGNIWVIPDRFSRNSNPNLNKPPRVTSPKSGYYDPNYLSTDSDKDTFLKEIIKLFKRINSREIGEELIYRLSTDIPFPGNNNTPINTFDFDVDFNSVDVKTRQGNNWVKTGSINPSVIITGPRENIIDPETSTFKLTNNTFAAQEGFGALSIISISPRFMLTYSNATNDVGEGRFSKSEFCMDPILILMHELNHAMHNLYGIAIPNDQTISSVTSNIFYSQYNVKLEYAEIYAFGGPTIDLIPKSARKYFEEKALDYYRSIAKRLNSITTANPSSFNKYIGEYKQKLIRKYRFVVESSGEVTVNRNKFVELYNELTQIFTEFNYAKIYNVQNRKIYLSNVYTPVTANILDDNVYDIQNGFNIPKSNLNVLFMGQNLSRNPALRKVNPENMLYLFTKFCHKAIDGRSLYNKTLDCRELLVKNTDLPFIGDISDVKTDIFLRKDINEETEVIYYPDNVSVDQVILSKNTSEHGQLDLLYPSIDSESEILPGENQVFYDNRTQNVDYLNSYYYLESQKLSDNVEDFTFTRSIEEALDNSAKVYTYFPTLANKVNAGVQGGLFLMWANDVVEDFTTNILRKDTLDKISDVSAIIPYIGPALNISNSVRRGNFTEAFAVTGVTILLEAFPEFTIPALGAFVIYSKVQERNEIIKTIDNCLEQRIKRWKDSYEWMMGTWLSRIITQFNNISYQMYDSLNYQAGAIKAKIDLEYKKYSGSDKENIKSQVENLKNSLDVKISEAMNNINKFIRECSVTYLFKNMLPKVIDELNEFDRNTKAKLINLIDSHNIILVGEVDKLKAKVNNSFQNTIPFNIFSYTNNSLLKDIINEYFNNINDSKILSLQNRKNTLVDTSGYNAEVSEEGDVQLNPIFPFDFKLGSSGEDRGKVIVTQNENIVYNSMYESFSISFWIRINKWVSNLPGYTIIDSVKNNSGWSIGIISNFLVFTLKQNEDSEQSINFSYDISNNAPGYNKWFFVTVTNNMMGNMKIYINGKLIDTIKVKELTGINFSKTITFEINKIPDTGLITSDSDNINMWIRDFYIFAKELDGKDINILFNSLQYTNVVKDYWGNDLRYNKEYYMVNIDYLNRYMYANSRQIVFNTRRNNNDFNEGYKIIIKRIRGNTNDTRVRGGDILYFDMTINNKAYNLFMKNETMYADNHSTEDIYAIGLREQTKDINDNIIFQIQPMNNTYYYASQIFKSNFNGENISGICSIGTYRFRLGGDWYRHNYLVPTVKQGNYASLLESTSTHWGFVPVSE
- Test: IgG KinExA
Entries and their pKd values follow.
Please keep in mind that pKd is minus log10 of the molar concentration; only the number is needed.

Would you please look over these solved cases?
Q) Sample 4C4.2 IgG (antibody, V domains shown) VH: QVQLVESGPGLVKPSQTLSLTCSVSGASINNSPYFWNWFRQFPGKGLEWIGYIYWSGSTNYNPSLKSRLAMSVDTSKNQFSLKLTSATAADTAVYYCARDQGGGTVVKENWFDPWGQGTLVTVSS VL: DIQMTQSPSTLSASVGDRVTITCRASQSIGTYLNWYQQKPGRAPTLLVSRTSNLHTGVPSRFSGDGSGSHFSLTIDSLQPEDFATYYCQQSHTSPVTFGQGTKVEIK — what was its pKd?
A) 10.46

Q) Try this binder next: 4C4.1 IgG (antibody, V domains shown) VH: QVQLVESGPGLVKPSQTLSLTCSVSGASINNSPYFWNWFRQFPGKGLEWIGYIYWSGSTNYNPSLKSRLAMSVDTSKNQFSLKLTSATAADTAVYYCARDQGGGTVVKENWFDPWGQGTLVTVSS VL: ETTLTQSPSSLSASVGDRVSITCRASQSISNYLNWYQQKPGKAPKLLIYAASSLQSGVPSRFSGSGSGTDFTLTISSLQPEDFATYYCQQSYSDPPTFGQGTKVEIK
A) 9.27

More entries:
Q) Sample 8DC1.2 IgG (antibody, V domains shown) VH: QVTLKESGGGLVQPGRSLTLSCPLSGFTSSDYVLHWVRQAPGTGLDWVAVISSDGTKAYYGDSVKGRFTISRDTSKNTLLLQMNSPRAEDTAIYYCAISTRGPFDIWGHGTMVTVSS VL: DIQMTQSPSSLSAFVGDRITITCRASRGVSNYLAWYQQKPGKAPKLLIYAASSLQSGVPSRFSGSGSGTEFTLTISGLQPDDFATYYCQQYNAYPLTFGGGTKLEIK — what was its pKd?
A) 9.13
